- assayed-system: MGL (Rattus norvegicus)
- Construct: one g rat brain was homogenized using a Polytron homogenizer; from tissue; host or cells: rat brain homogenate
- Sequence (Q8R431 1-303): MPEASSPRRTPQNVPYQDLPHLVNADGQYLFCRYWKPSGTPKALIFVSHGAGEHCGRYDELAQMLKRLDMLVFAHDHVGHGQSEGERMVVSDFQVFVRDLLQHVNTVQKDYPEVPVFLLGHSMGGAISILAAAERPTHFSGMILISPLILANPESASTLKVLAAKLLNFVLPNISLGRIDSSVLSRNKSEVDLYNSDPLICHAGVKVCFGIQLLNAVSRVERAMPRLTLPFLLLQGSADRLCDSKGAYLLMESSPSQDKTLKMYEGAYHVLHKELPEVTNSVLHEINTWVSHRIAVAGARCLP
- experiment-description: 2-AG accumulation assay in rat brain homogenate
- Format: biochemical
- recorded-conditions: rat brain homogenate; compound 1 μM; 2-AG accumulation as percent of vehicle; read-out: Rat Brain 2AG % VehCntrl (%) @ 1 μM
Simple rule here: 2-AG accumulation, % of vehicle control at 1 µM less than 200% is yes (1), otherwise no (0).

Past entries and their recorded results:
[[record]]
compound = "O=C(c1ccccc1)N1CCN(C2CN(C(=O)c3ccc(-c4ccc(Br)cc4)cc3)C2)CC1 [Cpd 83]"
assigned_category = "yes (1)"

[[record]]
compound = "O=C(c1nccs1)N1CCN(C2CN(C(=O)c3cccc4oc(-c5ccccc5)nc34)C2)CC1 [Cpd 1190]"
assigned_category = "yes (1)"

[[record]]
compound = "O=C(c1ccc2c(ccn2-c2ccc(C(F)(F)F)cc2)c1)N1CC(N2CCN(C(=O)c3ccc[nH]3)CC2)C1 [Cpd 1339]"
assigned_category = "no (0)"

[[record]]
compound = "O=C(c1nccs1)N1CCN(C2CN(C(=O)c3sc4cc(Cl)ccc4c3C(F)(F)F)C2)CC1 [Cpd 664]"
assigned_category = "no (0)"

[[record]]
compound = "O=C(c1ccc(-c2ccc(Br)cc2)cc1)N1CC(N2CCN(C(=O)c3nccs3)CC2)C1 [Cpd 168]"
assigned_category = "no (0)"

[[record]]
compound = "CC(C)Cc1ccc(C(=O)N2CC(N3CCN(C(=O)c4nccs4)CC3)C2)cc1 [Cpd 891]"
assigned_category = "no (0)"

[[record]]
compound = "O=C(c1ccccc1)N1CCN(C2CN(C(=O)c3ccc4c(ccn4-c4cc(F)cc(F)c4)c3)C2)CC1 [Cpd 580]"
assigned_category = "yes (1)"


API: the following record is the query input.
[Q] Please determine if O=C(c1ccc2c(ccn2-c2ccccn2)c1)N1CC(N2CCN(C(=O)c3nccs3)CC2)C1 [Cpd 1135] is below 200% in terms of 2-AG accumulation, % of vehicle control at 1 µM.
[A] no (0)
